Numbers sourced from patent US10239957B2.

Reported values of In vitro dddCt (vs. baseline SCE dose) for individual entries
system: CTNNB1; assay: In vitro DMD assay: mRNA silencing enhancement by peptide conjugates after siRNA-IV treatment; assay type: cell-based; settings: Targeted peptide dose 200 nM; primary mouse hepatocytes; siRNA-IV 125 nM baseline
Where no end group is shown, it is not given here. TGN = not defined here
I only need the number, thanks.

What In vitro dddCt (vs. baseline SCE dose) appears in the records for this substance with CTNNB1? TGN-S-S-Seq-ID-56 (L) (C(TGN)GLFHALLHLLHSLWHLLLHAWYGYGHKKHHQHR; reading uncertain; also: disulfide-linked to TGN peptide via Cys; listed as Homo sapiens)
−0.12

What In vitro dddCt (vs. baseline SCE dose) appears in the records for this substance with CTNNB1? TGN-S-S-SEQ ID NO: 1741 (L) (GLFGALAEALAEALAEHLAEALAEALEALAAGGSC(TGN); reading uncertain; also: TGN linked to Cys via disulfide, TGN not defined; listed as Homo sapiens)
−0.25
